Provenance of the data: PubChem BioAssay (NCI)

System: HCT-15 colon
PROTOCOL DETAILS: NCI tumour cell line growth inhibition, 48 h
Recorded TGI, one value per entry.

MOLECULE: CC(C)N(C(=O)C12C3C4C5(C#N)C3C1(I)C5C42I)C(C)C (stereo unspecified)
TGI: > 57.7 µM
--
MOLECULE: CCN(Cc1cccc(OC)c1)c1ccc(CO)c(Cl)c1
TGI: 66.6 µM
--
MOLECULE: O=C(/C=C/c1cccnc1)NCCCCC1CCN(C(=O)c2ccccc2)CC1
TGI: > 100 µM
--
MOLECULE: Cc1cc(C)c(C#N)c(SC(=S)NC(=O)c2ccccc2)n1
TGI: > 100 µM
--
MOLECULE: C/C=C\C(CC(=O)NCCc1c[nH]c2ccccc12)CC(=O)OC (stereo unspecified)
TGI: > 100 µM
--
MOLECULE: C/C(=C\COP(=O)(O)OP(=O)(O)O)CC/C=C(\C)CNc1ccccc1
TGI: > 50 µM

Name the reported TGI value associated with the molecule CSc1nc2c(c(=O)[nH]1)N=C1c3ccccc3C(=O)C1C(c1ccc(F)cc1)N2 (stereo unspecified)
> 100 µM

Name the reported TGI value associated with the molecule COC(C[C@H]1CCCC[C@]1(O)/C(=C\CO[Si](C(C)C)(C(C)C)C(C)C)Sc1ccccc1)OC
60 µM

###

Tested on: HCC-2998 colon
PROTOCOL DETAILS: NCI tumour cell line growth inhibition, 48 h
PROPERTY: TGI

Solved entries:
COMPOUND: COCCn1cc(-c2csc(-c3c[nH]c4ccccc34)n2)c2cccnc21
TGI: > 100 µM

COMPOUND: O=C(O)Cn1ncn(NC(=O)Cc2ccccc2)c1=S
TGI: > 10 µM

COMPOUND: CCOc1ccc(N=Cc2cccc3cccnc23)cc1
TGI: > 100 µM

COMPOUND: Cc1cc(=O)[nH]c(NN2C(Cl)C(=O)C2c2ccco2)n1 (configuration not stated)
TGI: > 100 µM

COMPOUND: C(=N\Nc1ccccn1)/c1ccccn1
TGI: 97.3 µM

Name the reported TGI value associated with the compound CC12CCC3C(CC=C4CC(O)CCC43C)C1C/C(=C\N1CCCC1)C2=O (configuration not stated)
> 100 µM

Name the reported TGI value associated with the compound CCn1c(O)c(C(=O)NC(C)c2ccc([N+](=O)[O-])cc2)c(=O)n(CC)c1=S (configuration not stated)
10.7 µM

###

Test system: MOLT-4 leukemia
PROTOCOL DETAILS: NCI tumour cell line growth inhibition, 48 h
PROPERTY: TGI

Solved entries:
MOLECULE: CCCCn1c2cc(OCc3cn(-c4ccc(Cl)cc4)nn3)ccc2c2ccnc(C)c21
MEASUREMENT TARGET: MOLT-4 leukemia
TGI: 23.9 µM

MOLECULE: COC(=O)C1=C(C)N(NC(N)=O)C2(N)N(NC(N)=O)C(C)=C(C(=O)OC)C12C(=O)OC (stereo not drawn)
MEASUREMENT TARGET: MOLT-4 leukemia
TGI: > 100 µM

MOLECULE: N#C[C@H]1C(=O)C(c2nc3ccccc3[nH]2)S[C@H]1c1ccccc1 (stereo partly drawn)
MEASUREMENT TARGET: MOLT-4 leukemia
TGI: > 100 µM

MOLECULE: C=C(C)C(=O)O[C@H]1CC2(CO)O[C@@H]2CC/C(COC(C)=O)=C/C2OC(=O)C(=C)[C@@H]21 (stereo partly drawn)
MEASUREMENT TARGET: MOLT-4 leukemia
TGI: 29.8 µM

MOLECULE: CC(C)N(C(=O)C12C3C4C5(C#N)C3C1(I)C5C42I)C(C)C (stereo not drawn)
MEASUREMENT TARGET: MOLT-4 leukemia
TGI: > 100 µM

With those in mind, consider the next molecule.
Name the reported TGI value associated with the molecule CN(c1ccc(Cl)cc1)S(=O)(=O)c1ccccc1
> 100 µM
